Test system: RARg:RXRa (NR concentration 270 nM, RXRa partner concentration 90 nM)
assay.overview: PBM binding z-score (relative to random genomic background probes); higher = stronger binding; sequences stand for … in GC…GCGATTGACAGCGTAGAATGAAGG
recorded.endpoint: PBM binding z-score
Answer using only a numeral; do not append any unit.

Field: example entries. Status: answers known.
[[record]]
sequence_record = "TCAGACAGGTGAAGGTAAGTCAGGTACGCAGTCG"
recorded_result = 0.505

[[record]]
sequence_record = "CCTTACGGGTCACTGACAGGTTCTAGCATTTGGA"
recorded_result = 4.85

[[record]]
sequence_record = "AGAACGAGGGCAATCAGTTGATAGCACGGGTGGC"
recorded_result = 1.25

[[record]]
sequence_record = "CCTTACGGGTCAAGGGTATAGCACGGGTGGTACG"
recorded_result = 4.8

[[record]]
sequence_record = "TCATATAGGTAAAAGGTGAAAGTTGGTGTGGTAA"
recorded_result = 2.24


**Q:** Give a short answer stating reported PBM binding z-score for `AGAATGAGGTTATACGTAGATTAGGGAAGAAAGT` .
**A:** 1.67

**Q:** Dear colleague, please send me the reported PBM binding z-score for `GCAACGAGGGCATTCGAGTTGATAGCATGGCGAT` when you can.
**A:** 0.926

**Q:** Assign PBM binding z-score to the following record: `CCTTACGGGTCACTGGCAGGTTATAGCATTTGGA`
**A:** 5.81

**Q:** Look up and report measured PBM binding z-score for this entry: `TCGAGTAGGTTAGGGGGATTCAGAATGGCGTCGA`
**A:** 0.0898

**Q:** Provide measured PBM binding z-score value, entry: `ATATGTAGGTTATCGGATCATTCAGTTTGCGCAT`
**A:** 0.837

**Q:** For the sequence `GGATCGAGGGCATTCGAGTTGATAGCATGGCGAT` , report PBM binding z-score.
**A:** 1.07

**Q:** Using known records, supply PBM binding z-score for `TGAATGAGGTTACAGATCAGGGAACGTGGCGTCG`
**A:** 1.89
